assay.target: GST-p300 (p300 CH1 domain, residues 330–420) (Homo sapiens)
Sequence (Q09472 330-420): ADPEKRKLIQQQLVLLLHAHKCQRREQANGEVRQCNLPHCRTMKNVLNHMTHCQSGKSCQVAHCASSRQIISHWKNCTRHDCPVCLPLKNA
test.name: Fluorescence anisotropy direct titration of GFP-HIF-1α776–826 variants with GST-p300
Assay type: binding
measurement.conditions: 50 nM GFP-HIF-1α776–826 variant, GST-p300 serial dilution, 25 mM Tris–HCl, 150 mM NaCl, 1 mM DTT, pH 7.4, 27 °C, 1:1 model, ± standard error of fitted value, technical triplicates
pKd: −log10 of the molar value. No end group written: not given here.
t means recorded pKd is 7 or above; f means it is below 7.

[[record]]
substance = "V825A: GFP-HIF-1α776–826 C-TAD single alanine variant V825A ({GFP}-SDLACRLLGQSMDESGLPQLTSYDCEVNAPIQGSRNLLQGEELLRALDQAN; cysteine pairing not given here)"
assigned_class = "f"

[[record]]
substance = "Q824A: GFP-HIF-1α776–826 C-TAD single alanine variant Q824A ({GFP}-SDLACRLLGQSMDESGLPQLTSYDCEVNAPIQGSRNLLQGEELLRALDAVN; cysteine pairing not given here)"
assigned_class = "t"

[[record]]
substance = "D823A: GFP-HIF-1α776–826 C-TAD single alanine variant D823A ({GFP}-SDLACRLLGQSMDESGLPQLTSYDCEVNAPIQGSRNLLQGEELLRALAQVN; cysteine pairing not given here)"
assigned_class = "f"


**Q:** Determine whether measured pKd meets or exceeds 7 for L795A D799A: GFP-HIF-1α776–826 C-TAD multiple alanine variant ({GFP}-SDLACRLLGQSMDESGLPQATSYACEVNAPIQGSRNLLQGEELLRALDQVN; cysteine pairing not given here)
**A:** f
